systemUnderTest: human norepinephrine transporter (Homo sapiens, UniProt P23975)
Construct: expressed in transfected cells; host or cells: HEK-293
Sequence (P23975 whole entry): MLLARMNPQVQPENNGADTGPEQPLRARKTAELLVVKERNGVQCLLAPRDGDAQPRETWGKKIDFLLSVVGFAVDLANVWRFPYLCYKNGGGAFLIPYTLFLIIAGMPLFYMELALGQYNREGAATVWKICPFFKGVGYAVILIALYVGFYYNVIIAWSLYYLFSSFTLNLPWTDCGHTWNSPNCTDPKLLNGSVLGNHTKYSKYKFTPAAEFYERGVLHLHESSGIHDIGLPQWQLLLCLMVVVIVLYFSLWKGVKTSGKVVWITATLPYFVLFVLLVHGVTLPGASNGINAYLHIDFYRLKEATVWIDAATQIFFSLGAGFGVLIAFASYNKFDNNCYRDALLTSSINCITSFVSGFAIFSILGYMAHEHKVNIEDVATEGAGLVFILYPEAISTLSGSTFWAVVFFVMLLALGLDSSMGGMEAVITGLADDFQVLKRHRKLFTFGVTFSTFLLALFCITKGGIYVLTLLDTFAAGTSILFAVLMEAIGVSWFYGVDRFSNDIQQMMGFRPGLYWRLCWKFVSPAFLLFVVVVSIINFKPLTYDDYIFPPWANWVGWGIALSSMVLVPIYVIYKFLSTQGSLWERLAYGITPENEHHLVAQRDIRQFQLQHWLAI
experiment: hNET Receptor Binding ([125I]-RTI-55 displacement, HEK-293 membranes)
testParameters: hNET, HEK-293 cell membranes, 50 pM [125I]-RTI-55, Ki from IC50 by Cheng-Prusoff; read-out: NET Ki
experimentalReadout: Ki (nM)
One number for each entry, in nM.

{"molecule": "CCCCc1ncccc1OC[C@@H]1CNCC[C@H]1c1ccccc1 (racemic)", "systemUnderTest": "human norepinephrine transporter (Homo sapiens, UniProt P23975)", "experimentalReadout": "Ki", "numericResult": 7.48}
{"molecule": "CCOc1cccnc1OC[C@@H]1CNCC[C@H]1c1ccccc1", "systemUnderTest": "human norepinephrine transporter (Homo sapiens, UniProt P23975)", "experimentalReadout": "Ki", "numericResult": 14.4}
{"molecule": "Cc1ccc(OC[C@@H]2CNCC[C@H]2c2ccccc2)cn1", "systemUnderTest": "human norepinephrine transporter (Homo sapiens, UniProt P23975)", "experimentalReadout": "Ki", "numericResult": 263}
{"molecule": "c1ccc([C@H]2CCNC[C@H]2COc2ccccc2C2CCCCC2)cc1 (relative stereo)", "systemUnderTest": "human norepinephrine transporter (Homo sapiens, UniProt P23975)", "experimentalReadout": "Ki", "numericResult": 317}

Now let's try a different one.
Q: Fill in: Ki of "CN(C)C(=O)c1ccc(OC[C@@H]2CNCC[C@H]2c2ccccc2)cc1" is ___
Result: 2940

====

I'd be grateful if you could share measured Ki for these entries.
systemUnderTest: human serotonin transporter (Homo sapiens, UniProt P31645)
Construct: expressed in transfected cells; host or cells: HEK-293
Sequence (P31645 whole entry): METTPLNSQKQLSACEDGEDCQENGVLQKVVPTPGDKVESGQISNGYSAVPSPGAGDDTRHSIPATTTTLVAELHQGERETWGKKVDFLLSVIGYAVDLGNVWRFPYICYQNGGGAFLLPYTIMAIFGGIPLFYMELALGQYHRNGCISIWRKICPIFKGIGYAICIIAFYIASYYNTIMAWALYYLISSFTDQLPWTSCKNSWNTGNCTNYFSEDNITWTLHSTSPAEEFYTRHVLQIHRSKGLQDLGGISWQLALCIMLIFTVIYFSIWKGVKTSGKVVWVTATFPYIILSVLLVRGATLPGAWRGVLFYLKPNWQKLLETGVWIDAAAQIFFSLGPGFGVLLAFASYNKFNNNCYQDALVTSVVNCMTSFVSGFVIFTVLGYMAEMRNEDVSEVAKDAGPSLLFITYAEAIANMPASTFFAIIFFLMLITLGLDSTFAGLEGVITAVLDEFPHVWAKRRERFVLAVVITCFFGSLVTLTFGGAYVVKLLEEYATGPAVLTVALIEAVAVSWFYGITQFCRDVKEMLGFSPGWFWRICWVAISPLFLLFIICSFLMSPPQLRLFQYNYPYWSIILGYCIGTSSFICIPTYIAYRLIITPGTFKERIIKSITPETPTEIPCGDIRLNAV
experiment: hSERT Receptor Binding ([125I]-RTI-55 displacement, HEK-293 membranes)
testParameters: hSERT, HEK-293 cell membranes, 50 pM [125I]-RTI-55, Ki from IC50 by Cheng-Prusoff; read-out: SERT Ki
Answers are plain numbers, in nM.

Recorded results for 5 compounds are shown here.
{"compound": "CCCCc1ncccc1OC[C@@H]1CNCC[C@H]1c1ccccc1 (racemic) [Example 61]", "Ki [nM]": 23.8}
{"compound": "CNC(=O)c1ccc(OC[C@@H]2CNCC[C@H]2c2ccccc2)c(OC)c1 [Example 30]", "Ki [nM]": 333}
{"compound": "NC(=O)c1ccc(OC[C@@H]2CNCC[C@H]2c2ccccc2)cc1 [Example 38]", "Ki [nM]": 174}
{"compound": "Cc1ccc(OC[C@@H]2CNCC[C@H]2c2ccccc2)cn1 [Example 22]", "Ki [nM]": 3.47}
{"compound": "CCOc1cccnc1OC[C@@H]1CNCC[C@H]1c1ccccc1 [Example 43]", "Ki [nM]": 89.7}

Batch: Ki for all items listed.
1. CNC(=O)c1ccc(OC[C@@H]2CNCC[C@H]2c2ccccc2)cc1 [Example 29]
2. COCc1cc(OC[C@@H]2CNCC[C@H]2c2ccccc2)[nH]n1 [Example 23]
3. COc1cccnc1OC[C@@H]1CNCC[C@H]1c1ccccc1 [Example 44]
4. c1ccc([C@H]2CCNC[C@H]2COc2ccccc2C2CCCCC2)cc1 (relative stereo) [Example 56]
5. CCOc1ccccc1OC[C@H]1CNCC[C@@H]1c1ccccc1 [Example 3]
6. FC(F)(F)c1ccc(OC[C@@H]2CNCC[C@H]2c2ccccc2)nc1 [Example 19]
7. N#Cc1ccccc1OC[C@@H]1CNCC[C@H]1c1ccccc1 [Example 42]
8. COc1nccnc1OC[C@@H]1CNCC[C@H]1c1ccccc1 [Example 45]

Result:
967
1390
158
542
18.8
29.1
626
71.8

Batch: Ki for all items listed.
1. NC(=O)c1ncccc1OC[C@@H]1CNCC[C@H]1c1ccccc1 [Example 39]
2. COc1ncccc1OC[C@@H]1CNCC[C@H]1c1ccccc1 [Example 7]
3. c1ccc([C@@H]2CCNC[C@H]2COc2ccnc3ccsc23)cc1 [Example 35]
4. Cc1ccc(OC[C@H]2CNCC[C@@H]2c2ccccc2)nc1 [Example 5]
5. N#Cc1ccc(OC[C@@H]2CNCC[C@H]2c2ccccc2)cc1 [Example 26]
6. CC(C)c1cc(C(N)=O)cc(C(C)C)c1OC[C@@H]1CNCC[C@H]1c1ccccc1 [Example 27]
7. NC(=O)c1ccc(OC[C@@H]2CNCC[C@H]2c2ccccc2)c(Cl)c1 [Example 33]

Result:
732
17.7
8.4
2.29
21.5
5230
18.1

Batch: Ki for all items listed.
1. c1ccc([C@@H]2CCNC[C@H]2COc2ccccc2C2CCCCC2)cc1 (relative stereo) [Example 51]
2. COc1cccc(F)c1OC[C@@H]1CNCC[C@H]1c1ccccc1 [Example 41]
3. CCCc1ncccc1OC[C@@H]1CNCC[C@H]1c1ccccc1 [Example 17]
4. c1ccc(-c2ccccc2OC[C@@H]2CNCC[C@@H]2c2ccccc2)cc1 (relative stereo) [Example 55]
5. COc1cc(C#N)ccc1OC[C@@H]1CNCC[C@H]1c1ccccc1 [Example 36]

Result:
1. 174
2. 2.67
3. 21.9
4. 1050
5. 13.7

Batch: Ki for all items listed.
1. Cc1ccc(OC[C@@H]2CNCC[C@H]2c2ccccc2)nc1 [Example 20]
2. CCOc1ccccc1OC[C@@H]1CNCC[C@@H]1c1ccccc1 (relative stereo) [Example 52]
3. NC(=O)c1cc(Cl)ccc1OC[C@@H]1CNCC[C@H]1c1ccccc1 [Example 37]
4. CCCc1ccccc1OC[C@@H]1CNCC[C@H]1c1ccccc1 (relative stereo) [Example 50]
5. CC(C)Cc1ncccc1OC[C@@H]1CNCC[C@H]1c1ccccc1 (racemic) [Example 62]
6. CN(C)C(=O)c1ccc(OC[C@@H]2CNCC[C@H]2c2ccccc2)cc1 [Example 32]
7. CCCc1ccccc1OC[C@@H]1CNCC[C@@H]1c1ccccc1 (relative stereo) [Example 53]
8. c1ccc(-c2ccccc2OC[C@@H]2CNCC[C@H]2c2ccccc2)cc1 (relative stereo) [Example 47]

Result:
3.14
96
431
33
59.2
861
267
1050

Batch: Ki for all items listed.
1. Cc1cccc(OC[C@@H]2CNCC[C@H]2c2ccccc2)n1 [Example 46]
2. CCCOc1ncccc1OC[C@@H]1CNCC[C@H]1c1ccccc1 [Example 9]
3. CCOc1ncccc1OC[C@H]1CNCC[C@@H]1c1ccccc1 [Example 2]

Result:
[156, 17.5, 6.51]
